# Tested on: Pancreas_Capan1
# test-summary: Cell proliferation assay (ATPlite)
# Assay type: cell-based
# condition-description: 72 hours, 0.5% fetal bovine serum
Listed below: IC50 values for each entry.

[[record]]
compound = "C#Cc1cccc(Nc2ncnc3cc(OC)c(OCCCCCCC(=O)NO)cc23)c1 [Compound 12]"
attribute_measured = "IC50"
result = "100 to 1000 nM"


// returns reported IC50 for input C#Cc1cccc(Nc2ncnc3cc(OC)c(NC(=O)CCCCCCC(=O)NO)cc23)c1 [Compound 44]
1000 to 10000 nM

Request: COc1cc2ncnc(Nc3ccc(F)c(Cl)c3)c2cc1OCCCCCCC(=O)NO [Compound 6]
1000 to 10000 nM
